System: up to 32 different microorganisms
Test: in vitro antibacterial activity (MIC), agar dilution on Brain Heart Infusion (BHI) agar with Steers replicator
Assay type: cell-based
Details: organism code HH; unit assumed
Property: MIC; scope: individual compounds
Return type: number; implicit unit µg/mL.

// solved cases for MIC follow
compound	MIC (µg/mL)
CCC1OC(=O)C(C)C(=O)C(C)C(OC2OC(C)CC(N(C)C)C2O)C(C)(OCC=Cc2ccc3nccnc3c2)CC(C)C(=O)C(C)C2NC(=O)OC12C (stereo not drawn)	0.1
CC[C@H]1OC(=O)[C@H](C)C(=O)[C@H](C)[C@@H](O[C@@H]2O[C@H](C)C[C@H](N(C)C)[C@H]2O)[C@@](C)(OCC=NOCc2ccc3ccccc3n2)C[C@@H](C)C(=O)[C@H](C)[C@H]2NC(=O)O[C@@]21C	0.2

Prompt: Data request, read-out MIC, for CCC1OC(=O)C(C)C(=O)C(C)C(OC2OC(C)CC(N(C)C)C2O)C(C)(OCC2CC2c2cnc3ccccc3c2)CC(C)C(=O)C(C)C2NC(=O)OC12C (stereo not drawn)
Completion: 0.1

Prompt: Data request, read-out MIC, for CCC1OC(=O)C(C)C(=O)C(C)C(OC2OC(C)CC(N(C)C)C2O)C(C)(OCC=Cc2ccc3ncc(-c4cccnc4)cc3c2)CC(C)C(=O)C(C)C2NC(=O)OC12C (stereo not drawn)
Completion: 0.1

Prompt: Data request, read-out MIC, for CCC1OC(=O)C(C)C(=O)C(C)C(OC2OC(C)CC(N(C)C)C2O)C(C)(OCC=Cc2ccc(-n3cccc3)cc2)CC(C)C(=O)C(C)C2NC(=O)OC12C (stereo not drawn)
Completion: 0.2

Prompt: Data request, read-out MIC, for "CC[C@H]1OC(=O)[C@H](C)C(=O)[C@H](C)[C@@H](O[C@@H]2O[C@H](C)C[C@H](N(C)C)[C@H]2O)[C@@](C)(OCCNCc2cnc3ccccc3c2)C[C@@H](C)C(=O)[C@H](C)[C@H]2NC(=O)O[C@@]21C"
Completion: 0.1

Prompt: Data request, read-out MIC, for "CC[C@H]1OC(=O)[C@H](C)C(=O)[C@H](C)[C@@H](O[C@@H]2O[C@H](C)C[C@H](N(C)C)[C@H]2O)[C@@](C)(OCCNCCc2ccccc2)C[C@@H](C)C(=O)[C@H](C)[C@H]2NC(=O)O[C@@]21C"
Completion: 0.2

Prompt: Data request, read-out MIC, for "CC[C@H]1OC(=O)[C@H](C)C(=O)[C@H](C)[C@@H](O[C@@H]2O[C@H](C)C[C@H](N(C)C)[C@H]2O)[C@@](C)(OCC#Cc2ccc(C(=O)Nc3ccccn3)o2)C[C@@H](C)C(=O)[C@H](C)[C@H]2NC(=O)O[C@@]21C"
Completion: 0.1

Prompt: Data request, read-out MIC, for CCC1OC(=O)C(C)C(=O)C(C)C(OC2OC(C)CC(N(C)C)C2O)C(C)(OCC=Cc2cnc3ccc(O)cc3c2)CC(C)C(=O)C(C)C2NC(=O)OC12C (stereo not drawn) [Example 208, R is —CH2CH═CH-(6-hydroxy-3-quinolyl)]
Completion: 0.2

The measured values listed here are drawn from patent USRE39591E1.
